Data origin: PubChem BioAssay (NCI)

Parameter TGI: see the listing below.
Tested on: M14 melanoma
Protocol: NCI tumour cell line growth inhibition, 48 h
Attribute Measured: TGI

# Compound, Attribute Measured, Experimental Result
rows = [
    ("CSCSCC(CO)NC(=O)/C=C/c1c(C)[nH]c(=O)[nH]c1=O (stereo unspecified)", "TGI", "> 100 µM"),
    ("CCc1nnc2sc(-c3ccc(-c4ccccc4[N+](=O)[O-])o3)nn12", "TGI", "> 100 µM"),
    ("O=C(Nc1c[nH]c(=O)[nH]c1=O)Oc1ccccc1", "TGI", "> 100 µM"),
    ("COc1ccc(/C=N/n2c(-c3ccccc3)n[nH]c2=O)c(OC)c1", "TGI", "> 100 µM"),
    ("COC(=O)[C@@H]1CN(C(=O)Cc2ccccc2)C(=O)N1", "TGI", "> 100 µM"),
    ("O=C1OC(c2ccccc2)=N/C1=C\\c1ccccc1", "TGI", "> 100 µM"),
    ("C=CCCCCCCCCCOC1C=CC(O)C(CO)O1 (stereo unspecified)", "TGI", "36 µM"),
    ("CCn1c(=O)nc2n(-c3ccc(SC)cc3)c3ccccc3nc-2c1=O", "TGI", "> 100 µM"),
    ("CN1C/C(=C\\c2ccccc2)C2=NN(C(N)=S)[C@H](c3ccccc3)[C@@H]2C1", "TGI", "> 100 µM"),
    ("CCNC(=O)O/N=C1\\CCC2[C@@H]3CC=C4C[C@@H](OC(=O)NCC)CC[C@]4(C)C3CC[C@]12C (stereo partly specified)", "TGI", "3.23 µM"),
    ("CCCCCCCC(=O)NC(C)(C)C(=O)NCC(=O)NC(CC(C)C)C(=O)NC(C)(C)C(=O)NCC(=O)NCC(=O)NC(CC(C)C)C(=O)NC(C)(C)C(=O)NCC(=O)NC(C(=O)NC(CO)CC(C)C)C(C)CC (stereo unspecified)", "TGI", "7.62 µM"),
    ("COc1cc2c(c(O)c1OC)C(O)C1CCC(=O)N1C2c1ccc2c(c1)OCO2 (stereo unspecified)", "TGI", "> 100 µM"),
    ("O=S(c1ccc(O)cc1)c1ccc(O)cc1", "TGI", "> 100 µM"),
    ("CC[C@@]1(O)C(=O)OCc2c1cc1n(c2=O)Cc2c-1nc1ccc(N)cc1c2CC[Si](C)(C)C", "TGI", "< 0.0499 µM"),
    ("CCN(CC)C(=O)N[C@@H](CC(C)C)C(=O)NC", "TGI", "> 100 µM"),
    ("CCOC(=O)c1c(NS(=O)(=O)c2ccccc2)sc2c1CCCC2", "TGI", "> 100 µM"),
]

* * *

Test system: EKVX NSCLC
Protocol: NCI tumour cell line growth inhibition, 48 h
Below, each entry is listed with its recorded TGI.

# Molecule, TGI
measured = [
    ("NS(=O)(=O)c1cccc(Nc2cc(-c3ccc(F)cc3)[nH]n2)c1", "> 25 µM"),
    ("O=C(OC[C@H]1C[C@H]2C(=O)OCCC[C@H]2O1)c1ccccc1", "> 100 µM"),
    ("CC(=O)CC(O)(C(F)(F)Cl)C(F)(Cl)Cl (stereo not given)", "> 10 µM"),
    ("O=C(NCCN1CCOCC1)c1cc2c(Oc3ccc(NC(=O)C4(C(=O)Nc5ccc(F)cc5)CC4)cc3)ccnc2[nH]1", "> 100 µM"),
    ("COC(=O)c1sc2c(c1C(=O)OC)C(=Nc1ccc(OC)cc1)SC2=Nc1ccc(OC)cc1", "3.02 µM"),
]
